Taken from ChEMBL document CHEMBL1201862.

- System: Malme-3M
- experiment.notes: NCI tumour cell line growth inhibition, 48 h
Active and inactive are the calls of the source. Rule as the data show it: active = GI50 up to about 1.1 µM and inactive = higher.
quantity.kind: GI50

Task: What value of GI50 has been recorded for this entry: COc1cc2c(c(O)c1OC)C(=O)C1CCC(=O)N1C2c1cccc2ccccc12 (configuration not stated)
Output: 81.8 µM (inactive)

Task: What value of GI50 has been recorded for this entry: OC12c3ccccc3C1CCCCCCCCCC21OCCCO1 (configuration not stated)
Output: > 100 µM (inactive)

Task: What value of GI50 has been recorded for this entry: COc1ccc(OC)c2c(=S)c3ccccc3[nH]c12
Output: 84.9 µM (inactive)

Task: What value of GI50 has been recorded for this entry: N#CC(c1nc2ccccc2s1)c1ncnc(Cl)c1[N+](=O)[O-] (configuration not stated)
Output: 19.4 µM (inactive)

Task: What value of GI50 has been recorded for this entry: NC(=S)Nc1nnc(-c2ccc(-c3nnc(NC(N)=S)o3)cc2)o1
Output: > 100 µM (inactive)

Task: What value of GI50 has been recorded for this entry: CCOC1C=CC(=O)C(CO)O1 (configuration not stated)
Output: 12.2 µM (inactive)

Task: What value of GI50 has been recorded for this entry: COc1ccc2c(c1)/C(=C(\C(Cl)=C(Cl)Cl)[N+](=O)[O-])N2
Output: 88.9 µM (inactive)

Task: What value of GI50 has been recorded for this entry: COc1ccc(/N=N/c2c(C)c(C#N)c(=S)n(C3OC(COC(C)=O)C(OC(C)=O)C(OC(C)=O)C3OC(C)=O)c2-c2ccccc2)cc1 (configuration not stated)
Output: 7.23 µM (inactive)

Task: What value of GI50 has been recorded for this entry: CC(C)(C)O/N=C/c1cc(NC(=S)c2ccccc2)ccc1Cl
Output: 19 µM (inactive)

Task: What value of GI50 has been recorded for this entry: NCCNCCNCc1c2ccccc2c(CNCCNCCN)c2ccccc12
Output: 84.9 µM (inactive)

Task: What value of GI50 has been recorded for this entry: O=C1NC(=O)C2C(=O)NC(=O)C1C2Cc1ccco1 (configuration not stated)
Output: > 100 µM (inactive)

Task: What value of GI50 has been recorded for this entry: COc1ccc2c(c1)/C(=C(\C(Cl)=C(\Cl)N1CCCCC1)[N+](=O)[O-])N2
Output: > 100 µM (inactive)

Task: What value of GI50 has been recorded for this entry: CSC1(C)CC2C(CC1N1CCCCC1)C2(C)C (configuration not stated)
Output: > 100 µM (inactive)

Task: What value of GI50 has been recorded for this entry: CCOC(=O)Cn1c(C(F)(F)F)nc2nc(Cl)c(Cl)nc21
Output: 38.4 µM (inactive)

Task: What value of GI50 has been recorded for this entry: O=C(CC(=O)N1N=C(N2c3ccccc3Sc3ccccc32)CC1c1ccccc1)Nc1ccc(Cl)cc1 (configuration not stated)
Output: > 100 µM (inactive)

Task: What value of GI50 has been recorded for this entry: C/C(=N/c1[nH]c(=O)cc2c1C(=O)CC2)N(C)C
Output: > 200 µM (inactive)

Task: What value of GI50 has been recorded for this entry: Cc1cc(=O)oc2c(CNC(CO)C(=O)O)c(O)ccc12 (configuration not stated)
Output: > 100 µM (inactive)

Task: What value of GI50 has been recorded for this entry: CCCCNc1nc(O)c2[nH]cnc2n1
Output: > 100 µM (inactive)

Task: What value of GI50 has been recorded for this entry: CC(=O)Nc1ccc2c3c(cc(O)c2c1)N(C(=O)CCCCCC(=O)Nc1ccc2c4c(cc(O)c2c1)N(C(=O)OC(C)(C)C)CC4CCl)CC3CCl (configuration not stated)
Output: 2.17 µM (inactive)

Task: What value of GI50 has been recorded for this entry: O=C1/C(=C/c2ccc([N+](=O)[O-])cc2)CNC/C1=C\c1ccc([N+](=O)[O-])cc1
Output: 46.5 µM (inactive)

Task: What value of GI50 has been recorded for this entry: O=C(NCc1ccccc1)c1cc2ccccc2o/c1=N\c1ccccc1F
Output: 25.2 µM (inactive)

Task: What value of GI50 has been recorded for this entry: COc1cccc(NC(=O)/C(CS(=O)(=O)CCC(C(C)=O)C(C)=O)=N/NC(C)(C)C)c1
Output: > 100 µM (inactive)

----------
- System: KM12
- experiment.notes: NCI tumour cell line growth inhibition, 48 h
The source made the active and inactive calls. Cut-off read from the data, not from the text of the source: active = GI50 up to about 1.1 µM and inactive = higher.
Result category, one only: 1.0 for active, 0.0 for inactive

Task: Write down the call the test reported for this compound. Item: CC1(C)C2CCC3CC(CCC#N)CCC3C21C#N (stereo unspecified)
Output: 0.0

Task: Write down the call the test reported for this compound. Item: CCN(CC)Cc1ccccc1CC(=O)N1c2ccccc2C(=O)Nc2cccnc21
Output: 0.0

Task: Write down the call the test reported for this compound. Item: Cc1nnc(N)nc1/C=C\c1ccc(N(C)C)cc1
Output: 0.0

Task: Write down the call the test reported for this compound. Item: COc1cc(C(=O)C/C(CCC(=O)Nc2ccccc2[N+](=O)[O-])=N\NC(=O)CC#N)ccc1O
Output: 0.0

Task: Write down the call the test reported for this compound. Item: COc1ccc(OC)c2c(=S)c3ccccc3[nH]c12
Output: 0.0

Task: Write down the call the test reported for this compound. Item: CC(=O)Nc1ccc2c3c(cc(O)c2c1)N(C(=O)CCCCCC(=O)Nc1ccc2c4c(cc(O)c2c1)N(C(=O)OC(C)(C)C)CC4CCl)CC3CCl (stereo unspecified)
Output: 0.0

Task: Write down the call the test reported for this compound. Item: CN(C)c1ccc(-c2nc(-c3cc4c(ccc5ccccc54)oc3=O)cs2)cc1
Output: 0.0

Task: Write down the call the test reported for this compound. Item: O=C(CCN1CCN(c2cccc(Cl)c2)CC1)N1CCc2c([nH]c3ccccc23)C1c1cccnc1 (stereo unspecified)
Output: 0.0

Task: Write down the call the test reported for this compound. Item: COC(=O)C1[C@H](c2ccc3c(c2)OCO3)OC(=O)[C@]1(C(=O)OC)C(=O)c1ccc(OC)c(OC)c1 (stereo partly specified)
Output: 0.0

Task: Write down the call the test reported for this compound. Item: N#CC1=C(S)N(C2OC(CO)C(O)C(O)C2O)C(c2ccccc2)=CC1c1ccccc1 (stereo unspecified)
Output: 0.0

Task: Write down the call the test reported for this compound. Item: C/C(=N/c1[nH]c(=O)cc2c1C(=O)CC2)N(C)C
Output: 0.0

Task: Write down the call the test reported for this compound. Item: CCC(C=O)P1(=O)OC(C)(C)CN1C(C)(C)C (stereo unspecified)
Output: 0.0

Task: Write down the call the test reported for this compound. Item: O=C(Nc1sccc1S(=O)(=O)c1ccc(Cl)cc1)c1ccccc1
Output: 0.0

Task: Write down the call the test reported for this compound. Item: O=C1OC2CCCC[C@@H]2C2C[C@]34CCCCC3[C@@H](C(=O)O4)C12 (stereo partly specified)
Output: 0.0

Task: Write down the call the test reported for this compound. Item: N#CC(c1nc2ccccc2s1)c1ncnc(Cl)c1[N+](=O)[O-] (stereo unspecified)
Output: 0.0

Task: Write down the call the test reported for this compound. Item: O=C(Nc1nc2ncn(CC(COc3ccccc3)OC(=O)c3ccccc3)c2c(=O)[nH]1)c1ccccc1 (stereo unspecified)
Output: 0.0

Task: Write down the call the test reported for this compound. Item: CN(C)CC(C)(C)C(/C=C/c1ccccc1)=N\Nc1ccccc1
Output: 1.0

Task: Write down the call the test reported for this compound. Item: CCOC(=O)/C(=C\c1ccccc1)C(=O)CCN1CCOCC1
Output: 0.0

Task: Write down the call the test reported for this compound. Item: CC1(C)C=C(/C=N/Nc2ccccc2)C(C#N)=C(O)C1(C#N)C#N
Output: 0.0

Task: Write down the call the test reported for this compound. Item: COc1cc(-c2ccccc2)cn2c1nc1ccccc12
Output: 0.0

Task: Write down the call the test reported for this compound. Item: Nc1nc(N)c2nc(CNc3ccc(C(=O)NC(CCC(=O)O)C(=O)O)cc3F)cnc2n1 (stereo unspecified)
Output: 1.0

----------
- System: LOX IMVI
- experiment.notes: NCI tumour cell line growth inhibition, 48 h
Calls of active or inactive are those of the source. Cut-off read from the data, not from the text of the source: active = GI50 up to about 1.1 µM and inactive = higher.
So I've got a bunch of compounds here, and I need their GI50 values.

Task: What value of GI50 has been recorded for this entry: CCN(CC)CCNc1ccc2ncn3c4ccc(OC)cc4c(=O)c1c23
Output: 1.51 µM (inactive)

Task: What value of GI50 has been recorded for this entry: O=C1Nc2cc([N+](=O)[O-])ccc2C(=O)N2CCC[C@@H]12
Output: > 100 µM (inactive)

Task: What value of GI50 has been recorded for this entry: O=C(/C=C\c1ccc(/C=C/C(=O)Nc2cccc(C3=NCCCN3)c2)cc1)Nc1cccc(C2=NCCCN2)c1
Output: > 100 µM (inactive)

Task: What value of GI50 has been recorded for this entry: COc1cc2c(cc1OC)C(N(C)C)C(c1ccccc1)=C2Cl (stereo not drawn)
Output: 17.4 µM (inactive)

Task: What value of GI50 has been recorded for this entry: O=c1[nH]c2cc(C(F)(F)F)ccc2nc1Cc1ccccc1
Output: > 100 µM (inactive)

Task: What value of GI50 has been recorded for this entry: CC1CC/C(=C\c2ccc(F)cc2)C(=O)/C1=C/c1ccc(F)cc1 (stereo not drawn)
Output: 2.77 µM (inactive)

Task: What value of GI50 has been recorded for this entry: OC12c3ccccc3C1CCCCCCCCCC21OCCCO1 (stereo not drawn)
Output: > 100 µM (inactive)

Task: What value of GI50 has been recorded for this entry: O=c1[nH]c(=O)n(C2CC(O)C(CO)O2)cc1Oc1ccccc1 (stereo not drawn)
Output: > 100 µM (inactive)
